Target: Human PPARα (Homo sapiens)
Construct: host or cells: proprietary non-human mammalian cells
Sequence (Q07869 whole entry): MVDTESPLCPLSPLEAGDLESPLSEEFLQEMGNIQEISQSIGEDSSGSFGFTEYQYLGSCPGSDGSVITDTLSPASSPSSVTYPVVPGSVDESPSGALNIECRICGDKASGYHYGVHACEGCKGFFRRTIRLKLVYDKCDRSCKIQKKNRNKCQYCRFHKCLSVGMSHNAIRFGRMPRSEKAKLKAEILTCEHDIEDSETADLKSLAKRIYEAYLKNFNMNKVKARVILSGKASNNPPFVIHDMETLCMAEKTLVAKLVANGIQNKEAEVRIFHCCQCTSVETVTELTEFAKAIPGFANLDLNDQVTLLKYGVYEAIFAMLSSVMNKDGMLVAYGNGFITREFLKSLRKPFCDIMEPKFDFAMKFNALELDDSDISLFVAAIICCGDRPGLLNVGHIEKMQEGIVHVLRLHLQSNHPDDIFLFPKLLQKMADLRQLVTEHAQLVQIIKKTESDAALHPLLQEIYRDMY
Experiment: Human PPARα Reporter Assay (luciferase)
Assay type: cell-based
Conditions: human PPARα reporter cells, overnight incubation, antagonism; read-out: Luciferase IC50
measured_endpoint: IC50 (µM)
Give a bare numeral; the unit µM is implied.

GET /values?item= `CCn1c(CCCc2ccc(-c3cc(NS(C)(=O)=O)ccn3)cc2)nn(Cc2ccc(C(C)(C)C)cc2)c1=O` &system= Human PPARα (Homo sapiens) returns IC50: 0.408

GET /values?item= `CCn1c(CCCc2ccc(-c3cccc(NS(=O)(=O)Cc4ccccc4)n3)cc2)nn(Cc2ccc(C(C)(C)C)cc2)c1=O` &system= Human PPARα (Homo sapiens) returns IC50: 0.037

GET /values?item= `CCCc1ccc(S(=O)(=O)Nc2ccc(-c3ccc(CCCc4nn(Cc5ccc(C(C)(C)C)cc5)c(=O)n4CC)cc3)nc2)cc1` &system= Human PPARα (Homo sapiens) returns IC50: 0.865

GET /values?item= `CCn1c(CCCc2ccc(-c3cc(OC)cc(C(=O)O)c3)cc2)nn(Cc2ccc(C(C)(C)C)cc2)c1=O` &system= Human PPARα (Homo sapiens) returns IC50: 0.021
